This collection of values is drawn from ChEMBL document CHEMBL1136411.

System: Canis familiaris
TEST SUMMARY: Area under the curve at a dose of 1 mg/kg
Type: ADME, organism-based, Canis lupus familiaris
Design: dose 1 mg/kg
CONDITION: dog, in vivo

>  <MOLECULE>
CCCC(C)n1c(CC)nc2c(-c3ccc(OC)cc3C(F)(F)F)ccnc21 (stereo not drawn)

>  <EXPERIMENTAL TARGET>
Canis familiaris

>  <AUC [µM·h]>
0.182

$$$$
>  <MOLECULE>
CCc1nc2c(-c3ccc(OC(F)F)cc3Cl)ccnc2n1C(C)C1CCC1 (stereo not drawn)

>  <EXPERIMENTAL TARGET>
Canis familiaris

>  <AUC [µM·h]>
0.795

$$$$
>  <MOLECULE>
CCCC(C)n1c(CC)nc2c(-c3ccc(C(F)(F)F)cc3Cl)ccnc21 (stereo not drawn)

>  <EXPERIMENTAL TARGET>
Canis familiaris

>  <AUC [µM·h]>
0.604

$$$$

###

EXPERIMENTAL TARGET: Corticotropin releasing factor receptor (Rattus norvegicus, UniProt P47866+P35353)
TEST SUMMARY: In vitro binding affinity to the CRF receptor in rat cortical homogenates
Binarize Ki at 1 nM; below is y, at or above is n.

>  <COMPOUND>
CCCC(C)n1c(CC)nc2c(-c3cc(C)c(OC)cc3C)ccnc21 (stereo not given)

>  <CLASS NAME>
y

$$$$
>  <COMPOUND>
CCC(CCOC)n1c(COC)nc2c(-c3ccc(C(F)(F)F)cc3Cl)ccnc21 (stereo not given)

>  <CLASS NAME>
n

$$$$
>  <COMPOUND>
CCCC(C)n1c(CC)nc2c(-c3ccc(C(F)(F)F)cc3Cl)ccnc21 (stereo not given)

>  <CLASS NAME>
n

$$$$
>  <COMPOUND>
CCCC(C)n1c(CC)nc2c(-c3ccc(OC)cc3C(F)(F)F)ccnc21 (stereo not given)

>  <CLASS NAME>
y

$$$$
>  <COMPOUND>
CCCC(C)n1c(C(F)F)nc2c(-c3ccc(Cl)cc3Cl)ccnc21 (stereo not given)

>  <CLASS NAME>
n

$$$$
>  <COMPOUND>
CCCC(C)n1c(CC)nc2c(-c3ccc(/C(C)=N\OC)cc3Cl)ccnc21 (stereo not given)

>  <CLASS NAME>
n

$$$$
>  <COMPOUND>
CCc1nc2c(-c3ccc(Cl)cc3Cl)ccnc2n1[C@H](CC)C1CC1

>  <CLASS NAME>
y

$$$$
>  <COMPOUND>
CCCC(C)n1c(CC)nc2c(-c3cc(F)c(F)cc3Cl)ccnc21 (stereo not given)

>  <CLASS NAME>
n

$$$$
>  <COMPOUND>
CCC(CCOC)n1c(OC)nc2c(-c3ccc(OC(F)(F)F)cc3Cl)ccnc21 (stereo not given)

>  <CLASS NAME>
n

$$$$

###

TEST SUMMARY: Maximal plasma concentration at a dose of 1 mg/kg
Format: ADME, organism-based, Canis lupus familiaris
Design: dose 1 mg/kg
CONDITION: dog

>  <COMPOUND>
CCCC(C)n1c(CC)nc2c(-c3ccc(C(F)(F)F)cc3Cl)ccnc21 (stereo not drawn)

>  <Cmax>
159 nM

$$$$
>  <COMPOUND>
CCc1nc2c(-c3ccc(OC(F)F)cc3Cl)ccnc2n1C(C)C1CCC1 (stereo not drawn)

>  <Cmax>
185 nM

$$$$
>  <COMPOUND>
CCCC(C)n1c(CC)nc2c(-c3ccc(OC)cc3C(F)(F)F)ccnc21 (stereo not drawn)

>  <Cmax>
62 nM

$$$$
